Test system: CP250
Assay: qHTS profiling for inhibitors of Plasmodium falciparum proliferation (AID 504749); note: nearly all actives have a fitted effect of over 60% in size
Conditions: P. falciparum in erythrocytes, SYBR Green DNA, 72 h; series mostly up to 28.7 µM
Results filed as inconclusive are left out. The source made the active and inactive calls. Calls come from the whole dose curve; as a rule, active = well fitted inhibition curve with a large enough effect; inconclusive = small, poorly fitted or top-dose-only effect; inactive = flat fitted curve, though single readings scatter.
Please answer using one outcome listed in t (active), f (inactive)

Task: Called result for O=C1CCC(c2ccc(-n3ccnc3)cc2)=NN1
Output: f

Task: Called result for Cc1ccnc(NS(=O)(=O)c2ccc(N)cc2)n1
Output: f

Task: Called result for O=C(N/N=C/c1ccccc1O)c1ccncc1
Output: t

Task: Called result for Cc1ncc(CSSCc2cnc(C)c(O)c2CO)c(CO)c1O
Output: f

Task: Called result for CCCCN1CCCC1C(=O)Nc1c(C)cc(C)cc1C (stereo unspecified)
Output: f

Task: Called result for CCC(C(=O)OCCN(CC)CC)c1ccccc1 (stereo unspecified)
Output: f

Task: Called result for CCCCCCCCCCCCCCCCCC(=O)OCC(O)CO (stereo unspecified)
Output: f

Task: Called result for CC(C)(C)CC(C)(C)c1ccc(O)c(Cc2ccc(Cl)cc2Cl)c1
Output: t

Task: Called result for Cc1cc(O)c(C(C)C)cc1Cl
Output: f

Task: Called result for N[C@H](CO)C(=O)O
Output: f

Task: Called result for CC1(C)CCC(NC(=O)[C@@H](N)CCC(=O)O)CC1
Output: f

Task: Called result for CC(C)(C)CC(C)(C)c1ccc(OCCOCC[N+](C)(C)Cc2ccccc2)cc1
Output: t

Task: Called result for COc1cc2c(cc1OC)C(C(C(=O)N(CCc1ccc(OC)c(OC)c1OC)CCc1ccc(OC)c(OC)c1OC)c1ccccc1)=NCC2 (stereo unspecified)
Output: t

Task: Called result for CN1C(CCl)Nc2cc(Cl)c(S(N)(=O)=O)cc2S1(=O)=O (stereo unspecified)
Output: f

Task: Called result for COc1ccc(/C=C/C(=O)c2ccc(OC)cc2OC)cc1
Output: t

Task: Called result for CN(C)/N=N/c1nc[nH]c1C(N)=O
Output: f

Task: Called result for CC(Cc1cccc(C(F)(F)F)c1)NCCOC(=O)c1ccccc1 (stereo unspecified)
Output: f

Task: Called result for COc1cc(OC)cc(OC)c1
Output: f

Task: Called result for CCN1CCN(c2cc3c(cc2F)c(=O)c(C(=O)O)cn3C2CC2)CC1
Output: f

Task: Called result for OCc1ccccc1O
Output: f

Task: Called result for CC(=O)Nc1c(I)cc(I)c(C(=O)O)c1I
Output: f

Task: Called result for CCCCOc1cc(C(=O)NCCN(CC)CC)c2ccccc2n1
Output: f

Task: Called result for O=C(OCCOCCO)c1ccccc1Nc1cccc(C(F)(F)F)c1
Output: f

Task: Called result for CCOC(=O)c1cccc(N)c1
Output: f

Task: Called result for COc1c(C)c2c(c(O)c1C/C=C(\C)CCC(=O)O)C(=O)OC2
Output: t

Task: Called result for Cc1cccn2c(=O)c(-c3nnn[nH]3)cnc12
Output: f
